pIC50: −log10 of the molar value.
Entries with their measured pIC50, system SIK1 (Homo sapiens (Human), UniProt P57059):
Property: pIC50

COC(=O)c1ccc(-n2cnc3cc(OC)c(OC)cc32)nc1N1CCCCC1=O :: 5.13

(A) COc1cc2ncn(-c3ccc(C(N)=O)c(NCc4cccs4)n3)c2cc1OC
(B) COc1cc2ncn(-c3ccc(C(=O)NCC(F)(F)F)c(-c4cccc(C#N)c4)n3)c2cc1OC
Ask: Quick one: lower pIC50, A or B ? State the label of the item chosen.
Result: B
(B: 4.92, A: 7.53)

---

pIC50: −log10 of the molar value. Counter-ions that a name gives are not always drawn.
Entries with their measured pIC50, system SIK1 (Homo sapiens (Human)):
Property: pIC50

COc1cc2ncn(-c3ccc(C(N)=O)c(NCCc4ccccc4)n3)c2cc1OC :: 8.55
CC(=O)c1ccc(-n2cnc3cc4c(cc32)NCC4)nc1-n1nc(C#N)cc1C :: 6.26
COc1cc2ncn(-c3ccc(C(N)=O)c(Oc4ccccc4Cl)n3)c2cc1OC :: 7.82
COc1cc2ncn(-c3ccc(C(N)=O)c(NC(CN)c4ccsc4)n3)c2cc1OC (centres unmarked) [Example 12, hydrochloride] :: 8.77
COC(=O)c1ccc(-n2cnc3cc(OC)c(OC)cc32)nc1N1CCCC1=O :: 5.80

(I) CC(=O)c1ccc(-n2cnc3cc(Nc4ccc(C5CCCN5)nn4)ccc32)nc1-n1nc(C#N)cc1C (centres unmarked)
(II) CC(=O)c1ccc(-n2cnc3cc4c(cc32)C(C)(C)C(=O)N4c2ccc(C)nn2)nc1-n1nc(C#N)cc1C
(III) COc1cc2ncn(-c3ccc(C(=O)NC4CC4)c(-c4cccc(C#N)c4)n3)c2cc1OC
Ask: // sort entries: pIC50, high to low Please list the labels in the order you were asked to rank them.
Result: II, III, I

---

pIC50: −log10 of the molar value. Counter-ions that a name gives are not always drawn.
Entries with their measured pIC50, system SIK2 (Homo sapiens (Human)):
Property: pIC50

COc1cc2ncn(-c3ccc(C(N)=O)c(NC(CN)c4cccc(Cl)c4)n3)c2cc1OC (stereo not shown) [Example 10, hydrochloride] :: 8.92
Cc1cc(C#N)nn1-c1nc(-n2cnc3cc(N[C@H]4CNC[C@H]4F)ccc32)ccc1C(N)=O [Example 25, formic acid] :: 6.77
COc1cc2ncn(-c3ccc(C(N)=O)c(NCc4ccccc4)n3)c2cc1OC [Example 3] :: 8.11
CC(=O)c1ccc(-n2cnc3ccc(Nc4ccc(C)nn4)cc32)nc1-n1nc(C#N)cc1C [Example 28] :: 6.95
Cc1ccc(Nc2ccc3c(c2)ncn3-c2ccc(C(N)=O)c(OC(C)C(F)F)n2)nn1 (stereo not shown) [Example 23] :: 7.82

(1) COc1cc2ncn(-c3ccc(C(N)=O)c(NC(CCN)c4cccc(Cl)c4)n3)c2cc1OC (stereo not shown) [Example 11, hydrochloride]
(2) CC(=O)c1ccc(-n2cnc3cc4c(cc32)NCC4)nc1-n1nc(C#N)cc1C [Example 30]
Ask: Could you point out whether the larger pIC50 belongs to 1 or to 2 ? State the label of the item chosen.
Result: 1
(1: 7.80, 2: 6.09)

---

pIC50: −log10 of the molar value. Counter-ions that a name gives are not always drawn.
Entries with their measured pIC50, system SIK1 (Homo sapiens (Human), UniProt P57059):
Property: pIC50

Use these answered entries as a reference point.
COc1cc2ncn(-c3ccc(C(N)=O)c(NC(CCN)c4ccccc4)n3)c2cc1OC (stereo not drawn) [Example 5, hydrochloride] :: 8.13
Cc1ccc(Nc2ccc3ncn(-c4ccc(C(N)=O)c(OC(C)C(F)F)n4)c3c2)nn1 (stereo not drawn) :: 6.22
COc1cc2ncn(-c3ccc(C(N)=O)c(NC(CN)c4cccc(Cl)c4)n3)c2cc1OC (stereo not drawn) [Example 10, hydrochloride] :: 8.77

(I) Cc1cc(C#N)nn1-c1nc(-n2cnc3cc(OCCN4CCOCC4)ccc32)ccc1C(N)=O
(II) Cc1ccc(Nc2ccc3c(c2)ncn3-c2ccc(C=O)c(N3C[C@H](C#N)C[C@@H]3C)n2)nn1
Ask: Could you point out whether the larger pIC50 belongs to I or to II ? State the label of the item chosen.
Result: II
(II: 7.12, I: 4.70)
